// reported Dmax per item
# EXPERIMENTAL_SYSTEM: IKZF2 (Homo sapiens (Human), UniProt Q96SW2+Q9UKS7)
# Sequence (Q9UKS7 whole entry): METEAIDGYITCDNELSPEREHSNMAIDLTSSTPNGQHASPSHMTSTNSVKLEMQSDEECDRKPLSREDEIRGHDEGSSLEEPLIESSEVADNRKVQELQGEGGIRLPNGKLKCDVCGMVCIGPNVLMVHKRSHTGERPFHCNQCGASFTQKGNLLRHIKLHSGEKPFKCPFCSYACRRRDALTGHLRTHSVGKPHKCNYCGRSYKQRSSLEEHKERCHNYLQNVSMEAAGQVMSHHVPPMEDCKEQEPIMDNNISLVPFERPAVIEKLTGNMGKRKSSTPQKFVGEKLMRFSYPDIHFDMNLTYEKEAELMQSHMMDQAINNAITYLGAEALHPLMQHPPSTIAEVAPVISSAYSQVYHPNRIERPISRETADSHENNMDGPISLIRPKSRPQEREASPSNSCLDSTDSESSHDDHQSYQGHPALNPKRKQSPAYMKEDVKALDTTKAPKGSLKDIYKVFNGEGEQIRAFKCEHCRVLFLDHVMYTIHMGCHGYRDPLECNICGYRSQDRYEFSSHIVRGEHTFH
# Sequence (Q96SW2 whole entry): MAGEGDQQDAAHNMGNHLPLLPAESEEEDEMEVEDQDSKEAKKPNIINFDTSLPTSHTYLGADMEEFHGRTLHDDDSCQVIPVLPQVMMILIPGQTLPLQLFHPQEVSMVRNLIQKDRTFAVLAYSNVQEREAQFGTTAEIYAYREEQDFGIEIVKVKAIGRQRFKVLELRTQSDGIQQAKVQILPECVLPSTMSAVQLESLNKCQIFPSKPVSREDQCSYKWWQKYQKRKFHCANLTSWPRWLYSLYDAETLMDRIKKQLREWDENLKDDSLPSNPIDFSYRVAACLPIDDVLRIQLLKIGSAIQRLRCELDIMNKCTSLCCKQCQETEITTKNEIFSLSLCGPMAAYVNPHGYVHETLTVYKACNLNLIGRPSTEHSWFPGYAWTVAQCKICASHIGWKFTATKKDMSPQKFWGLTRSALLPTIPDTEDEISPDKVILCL
# Sequence (Q16531 2-1140 partner): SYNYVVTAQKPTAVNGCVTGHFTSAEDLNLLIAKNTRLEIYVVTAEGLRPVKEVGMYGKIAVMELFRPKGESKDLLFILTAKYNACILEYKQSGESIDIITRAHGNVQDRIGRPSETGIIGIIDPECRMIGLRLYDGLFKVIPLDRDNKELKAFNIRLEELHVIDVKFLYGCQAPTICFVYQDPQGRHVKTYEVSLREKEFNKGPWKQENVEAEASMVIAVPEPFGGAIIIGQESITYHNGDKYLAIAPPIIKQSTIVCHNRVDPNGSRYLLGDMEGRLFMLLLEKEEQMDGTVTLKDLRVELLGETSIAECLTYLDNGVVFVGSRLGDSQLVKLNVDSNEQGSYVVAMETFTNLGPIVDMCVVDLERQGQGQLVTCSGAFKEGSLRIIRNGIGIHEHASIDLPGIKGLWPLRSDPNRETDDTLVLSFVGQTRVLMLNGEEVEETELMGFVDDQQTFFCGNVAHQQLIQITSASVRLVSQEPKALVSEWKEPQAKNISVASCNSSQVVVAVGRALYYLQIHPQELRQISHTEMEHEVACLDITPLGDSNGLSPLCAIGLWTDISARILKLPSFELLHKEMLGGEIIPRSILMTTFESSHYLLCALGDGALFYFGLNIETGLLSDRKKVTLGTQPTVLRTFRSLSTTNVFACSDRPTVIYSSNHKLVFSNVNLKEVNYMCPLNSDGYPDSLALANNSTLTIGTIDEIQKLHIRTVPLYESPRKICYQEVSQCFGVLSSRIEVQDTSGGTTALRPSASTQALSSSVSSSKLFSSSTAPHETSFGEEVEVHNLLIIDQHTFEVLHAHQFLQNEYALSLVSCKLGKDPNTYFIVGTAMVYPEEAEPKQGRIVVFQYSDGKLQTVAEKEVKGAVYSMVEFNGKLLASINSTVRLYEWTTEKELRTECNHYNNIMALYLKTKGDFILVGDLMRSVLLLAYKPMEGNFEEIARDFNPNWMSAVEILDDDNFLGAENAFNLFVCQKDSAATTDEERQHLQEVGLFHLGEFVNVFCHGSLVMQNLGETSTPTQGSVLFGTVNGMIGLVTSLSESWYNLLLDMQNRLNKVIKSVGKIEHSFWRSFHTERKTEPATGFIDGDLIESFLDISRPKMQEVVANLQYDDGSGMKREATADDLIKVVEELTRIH
# EXPERIMENT_DESCRIPTION: In vitro IKZF2 HiBit Assay (HEK293T Flp-in-HiBiT cells)
# Format: cell-based
# SETTINGS: HEK-293T; HEK293T Flp-in-HiBiT cells, 6 hrs incubation; read-out: IKZF2 HiBit Dmax (%)
# Procedure: In Vitro IKZF2 HiBit Assay The HiBiT protein tagging system was applied to modified HEK293T Flp-in-HiBiT cells (polyclone) via a CRISPR/Cas9-mediated insertion of the HiBiT peptide tag (Promega™) to the N-terminus of the IKZF2 gene locus (Neon™ transfection system). Test and reference compounds are diluted from 1 mM at 3 folds for 11 doses. […] The amount of Nano-Glo® HiBiT lytic reagent needed to perform the desired experiments is calculated. […] After briefly centrifuge, the plate is read on Envision. […]

{"MOLECULE": "Cn1ccc2c(CN3CCCC3CO)cc(-c3ccc4c(c3)CN(C3CCC(=O)NC3=O)C4=O)nc21 (stereo not shown) [Example 101]", "Dmax": "> 80%"}
{"MOLECULE": "O=C1CCC(N2Cc3cc(-c4cc(CN5CCCCC56CC6)c5ccn(C6COC6)c5n4)ccc3C2=O)C(=O)N1 (stereo not shown) [Example 264]", "Dmax": "60 to 80%"}
{"MOLECULE": "O=C1CCC(N2Cc3c(ccc(-c4cc(CN5CCCC5)c5ccn(C6CS(=O)(=O)C6)c5n4)c3F)C2=O)C(=O)N1 (stereo not shown) [Example 222]", "Dmax": "> 80%"}
{"MOLECULE": "O=C1CCC(N2Cc3cc(-c4cc(CN5CC(CO)C5)c5ccn(C6CC6)c5n4)ccc3C2=O)C(=O)N1 (stereo not shown) [Example 152]", "Dmax": "> 80%"}

----------
# EXPERIMENTAL_SYSTEM: IKZF2 (Homo sapiens (Human), UniProt Q96SW2+Q9UKS7)
# EXPERIMENT_DESCRIPTION: In vitro IKZF2 FACS Assay in Jurkat cells
# Type: cell-based
# SETTINGS: 24 hrs, maximal degradation percentage

{"COMPOUND": "O=C1CCC(N2Cc3cc(-c4cc(CN5CCCC5)c5[nH]ncc5n4)ccc3C2=O)C(=O)N1 (stereo not drawn)", "Dmax": "> 80%"}
{"COMPOUND": "O=C1CCC(N2Cc3c(ccc(-c4cc(CN5CCC6(CC5)COC6)c5ccn(C6CS(=O)(=O)C6)c5n4)c3F)C2=O)C(=O)N1 (stereo not drawn)", "Dmax": "> 80%"}
{"COMPOUND": "O=C1CCC(N2Cc3cc(-c4cc(CN5CCCC5)c5ncn(C6CCC6)c5n4)ccc3C2=O)C(=O)N1 (stereo not drawn)", "Dmax": "> 80%"}
{"COMPOUND": "O=C1CCC(N2Cc3cc(-c4ncc5cc(CN6CCCC6)ccn45)ccc3C2=O)C(=O)N1 (stereo not drawn)", "Dmax": "40 to 60%"}
{"COMPOUND": "O=C1CCC(N2Cc3cc(-c4cc(CN5CCCC5)c5ccn(C6CC(F)(F)C6)c5n4)ccc3C2=O)C(=O)N1 (stereo not drawn)", "Dmax": "60 to 80%"}
{"COMPOUND": "O=C1CCC(N2Cc3cc(-c4nc(CN5CCCC5)c5ccn(C6COC6)c5n4)ccc3C2=O)C(=O)N1 (stereo not drawn)", "Dmax": "60 to 80%"}
{"COMPOUND": "CCN(CC)Cc1cc(-c2ccc3c(c2)CN(C2CCC(=O)NC2=O)C3=O)n2cncc2c1 (stereo not drawn)", "Dmax": "40 to 60%"}
{"COMPOUND": "CC1c2cc(-c3cc(CN4CCCC4)c4ccn(C5CS(=O)(=O)C5)c4n3)ccc2C(=O)N1C1CCC(=O)NC1=O (stereo not drawn)", "Dmax": "> 80%"}
{"COMPOUND": "Cc1ccc(CCNCc2cc(-c3ccc4c(c3)CN(C3CCC(=O)NC3=O)C4=O)n3cncc3c2)cc1Cl (stereo not drawn)", "Dmax": "20 to 40%"}
{"COMPOUND": "Nc1n[nH]c2c(CN3CCC(O)CC3)cc(-c3ccc4c(c3)CN(C3CCC(=O)NC3=O)C4=O)nc12 (stereo not drawn)", "Dmax": "60 to 80%"}
{"COMPOUND": "O=C1CCC(N2Cc3cc(-c4cc(CN5CCC(CO)C5)c5ccn(C6COC6)c5n4)ccc3C2=O)C(=O)N1 (stereo not drawn)", "Dmax": "> 80%"}
{"COMPOUND": "CC(C)Nc1n[nH]c2c(CN3CCCC3)cc(-c3ccc4c(c3)C(C)N(C3CCC(=O)NC3=O)C4=O)nc12 (stereo not drawn)", "Dmax": "> 80%"}
{"COMPOUND": "O=C1CCC(N2Cc3c(ccc(-c4cc(CN5CCC(F)CC5)c5ccn(C6CS(=O)(=O)C6)c5n4)c3F)C2=O)C(=O)N1 (stereo not drawn)", "Dmax": "> 80%"}
{"COMPOUND": "O=C1CCC(N2Cc3c(ccc(-c4cc(CN5CCCC5)cc5cncn45)c3F)C2=O)C(=O)N1 (stereo not drawn)", "Dmax": "40 to 60%"}
{"COMPOUND": "CC(C)Nc1n[nH]c2c(CN3CC4COCC4C3)cc(-c3ccc4c(c3F)CN(C3CCC(=O)NC3=O)C4=O)nc12 (stereo not drawn)", "Dmax": "60 to 80%"}
